Measured Cmax, listed per entry for reference.
# assay procedure: Cmax in Sprague-Dawley rat at 10 mg/kg, po
# Format: ADME, organism-based
# Set-up: dose 10 mg/kg, route oral
# run conditions: in vivo
State just the number; it will be interpreted in ng/mL.

Please fill in: Cmax reported for CCOC(=O)C1=C(Nc2ccc3ccccc3c2)SCC1=O = 25.5

Next:
Please fill in: Cmax reported for CCOC(=O)C1=C(Nc2ccc3ccccc3c2)OCC1=O = 609

----------
Target chain: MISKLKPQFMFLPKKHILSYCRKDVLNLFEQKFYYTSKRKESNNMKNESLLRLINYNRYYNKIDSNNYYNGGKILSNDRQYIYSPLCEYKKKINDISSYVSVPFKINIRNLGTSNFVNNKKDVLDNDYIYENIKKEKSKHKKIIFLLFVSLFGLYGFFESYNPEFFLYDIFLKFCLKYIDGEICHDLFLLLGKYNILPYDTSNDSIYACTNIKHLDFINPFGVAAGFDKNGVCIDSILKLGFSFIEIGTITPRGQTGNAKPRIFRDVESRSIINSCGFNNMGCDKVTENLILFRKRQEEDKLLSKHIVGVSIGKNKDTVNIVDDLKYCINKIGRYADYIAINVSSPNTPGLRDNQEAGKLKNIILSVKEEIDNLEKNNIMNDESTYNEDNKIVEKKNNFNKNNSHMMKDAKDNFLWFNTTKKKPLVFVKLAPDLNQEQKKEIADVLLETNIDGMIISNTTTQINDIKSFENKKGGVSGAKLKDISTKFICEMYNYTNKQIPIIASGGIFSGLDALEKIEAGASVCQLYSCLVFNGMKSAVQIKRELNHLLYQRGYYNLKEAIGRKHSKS
Class boundaries, taken from values of IC50, are as follows: b0 = under 400 nM, b1 = from 400 nM up to 2000 nM, b2 = 2000 nM and over

Band for CCOC(=O)C1=C(Nc2ccc(Cl)cc2)SCC1=O ?
b1

Band for Cc1ccc(NC2=C(C(N)=O)C(=O)CS2)cc1C ?
b2

Band for CCOC(=O)C1=C(Nc2ccc(Br)cc2C)SCC1=O ?
b2

Band for CCOC(=O)C1=C(Nc2ccc3c(c2)CCCC3)SCC1=O ?
b0

Band for CCOC(=O)C1=C(Nc2ccccc2)SCC1=O ?
b2

Band for CCOC(=O)C1=C(Nc2ccc(C(F)(F)F)cc2)SCC1=O ?
b0

---
Band for CCCCOC(=O)C1=C(Nc2ccc(C)c(C)c2)SCC1=O ?
b2

Band for CCCCOC(=O)C1=C(Nc2ccc3ccccc3c2)SCC1=O ?
b2

Band for CCOC(=O)C1=C(Nc2ccc(C(F)(F)F)cc2)OCC1=O ?
b0

----------
Measured pIC50, listed per entry for reference.
# Test system: Plasmodium falciparum
# assay procedure: microbe, parasite or virus in culture
# run conditions: 3D7, 72 h
# Description: Antiplasmodial activity against chloroquine-sensitive Plasmodium falciparum 3D7 infected in erythrocytes assessed as parasite growth inhibition after 72 hrs by SYBR green 1 dye-based fluorometric analysis
pIC50 field: float, defined as -log10 of concentration (mol/L).

Please fill in: pIC50 reported for CCOC(=O)C1=C(Nc2ccc3c(c2)c2ccccc2n3CC)SCC1=O = 5.91

---
Please fill in: pIC50 reported for CCOC(=O)C1=C(Nc2ccc(S(F)(F)(F)(F)F)cc2)SCC1=O = 6.51

Please fill in: pIC50 reported for CCCCNC(=O)C1=C(Nc2ccc(C)c(C)c2)SCC1=O = 5.57

Please fill in: pIC50 reported for Cc1ccc(NC2=C(C(=O)OCC3CC3)C(=O)CS2)cc1C = 5.45

Please fill in: pIC50 reported for COC(=O)C1=C(Nc2ccc(C)c(C)c2)SCC1=O = 5.99

Please fill in: pIC50 reported for CCCNC(=O)C1=C(Nc2ccc(C)c(C)c2)SCC1=O = 5.50

Please fill in: pIC50 reported for CCOC(=O)C1=C(Nc2ccc(C)c(C)c2)SCC1=O = 5.70

Please fill in: pIC50 reported for Cc1ccc(NC2=C(C(=O)NCC3CC3)C(=O)CS2)cc1C = 5.48

Please fill in: pIC50 reported for CCCOC(=O)C1=C(Nc2ccc(C)c(C)c2)SCC1=O = 5.68
